The measurements presented in this section are drawn from patent US20250288589A1.

Provide the reported pIC50 of each item.
# target.desc: full-length human PIKFYVE (Homo sapiens, UniProt Q9Y2I7, L932S/Q1183K/Q995L/S1033A/S696N/T998S)
# Construct: A full-length human PIKFYVE [1-2098(end) amino acids and S696N, L932S, Q995L, T998S, S1033A and Q1183K
# Sequence (Q9Y2I7 whole entry S696N/L932S/Q995L/T998S/S1033A/Q1183K): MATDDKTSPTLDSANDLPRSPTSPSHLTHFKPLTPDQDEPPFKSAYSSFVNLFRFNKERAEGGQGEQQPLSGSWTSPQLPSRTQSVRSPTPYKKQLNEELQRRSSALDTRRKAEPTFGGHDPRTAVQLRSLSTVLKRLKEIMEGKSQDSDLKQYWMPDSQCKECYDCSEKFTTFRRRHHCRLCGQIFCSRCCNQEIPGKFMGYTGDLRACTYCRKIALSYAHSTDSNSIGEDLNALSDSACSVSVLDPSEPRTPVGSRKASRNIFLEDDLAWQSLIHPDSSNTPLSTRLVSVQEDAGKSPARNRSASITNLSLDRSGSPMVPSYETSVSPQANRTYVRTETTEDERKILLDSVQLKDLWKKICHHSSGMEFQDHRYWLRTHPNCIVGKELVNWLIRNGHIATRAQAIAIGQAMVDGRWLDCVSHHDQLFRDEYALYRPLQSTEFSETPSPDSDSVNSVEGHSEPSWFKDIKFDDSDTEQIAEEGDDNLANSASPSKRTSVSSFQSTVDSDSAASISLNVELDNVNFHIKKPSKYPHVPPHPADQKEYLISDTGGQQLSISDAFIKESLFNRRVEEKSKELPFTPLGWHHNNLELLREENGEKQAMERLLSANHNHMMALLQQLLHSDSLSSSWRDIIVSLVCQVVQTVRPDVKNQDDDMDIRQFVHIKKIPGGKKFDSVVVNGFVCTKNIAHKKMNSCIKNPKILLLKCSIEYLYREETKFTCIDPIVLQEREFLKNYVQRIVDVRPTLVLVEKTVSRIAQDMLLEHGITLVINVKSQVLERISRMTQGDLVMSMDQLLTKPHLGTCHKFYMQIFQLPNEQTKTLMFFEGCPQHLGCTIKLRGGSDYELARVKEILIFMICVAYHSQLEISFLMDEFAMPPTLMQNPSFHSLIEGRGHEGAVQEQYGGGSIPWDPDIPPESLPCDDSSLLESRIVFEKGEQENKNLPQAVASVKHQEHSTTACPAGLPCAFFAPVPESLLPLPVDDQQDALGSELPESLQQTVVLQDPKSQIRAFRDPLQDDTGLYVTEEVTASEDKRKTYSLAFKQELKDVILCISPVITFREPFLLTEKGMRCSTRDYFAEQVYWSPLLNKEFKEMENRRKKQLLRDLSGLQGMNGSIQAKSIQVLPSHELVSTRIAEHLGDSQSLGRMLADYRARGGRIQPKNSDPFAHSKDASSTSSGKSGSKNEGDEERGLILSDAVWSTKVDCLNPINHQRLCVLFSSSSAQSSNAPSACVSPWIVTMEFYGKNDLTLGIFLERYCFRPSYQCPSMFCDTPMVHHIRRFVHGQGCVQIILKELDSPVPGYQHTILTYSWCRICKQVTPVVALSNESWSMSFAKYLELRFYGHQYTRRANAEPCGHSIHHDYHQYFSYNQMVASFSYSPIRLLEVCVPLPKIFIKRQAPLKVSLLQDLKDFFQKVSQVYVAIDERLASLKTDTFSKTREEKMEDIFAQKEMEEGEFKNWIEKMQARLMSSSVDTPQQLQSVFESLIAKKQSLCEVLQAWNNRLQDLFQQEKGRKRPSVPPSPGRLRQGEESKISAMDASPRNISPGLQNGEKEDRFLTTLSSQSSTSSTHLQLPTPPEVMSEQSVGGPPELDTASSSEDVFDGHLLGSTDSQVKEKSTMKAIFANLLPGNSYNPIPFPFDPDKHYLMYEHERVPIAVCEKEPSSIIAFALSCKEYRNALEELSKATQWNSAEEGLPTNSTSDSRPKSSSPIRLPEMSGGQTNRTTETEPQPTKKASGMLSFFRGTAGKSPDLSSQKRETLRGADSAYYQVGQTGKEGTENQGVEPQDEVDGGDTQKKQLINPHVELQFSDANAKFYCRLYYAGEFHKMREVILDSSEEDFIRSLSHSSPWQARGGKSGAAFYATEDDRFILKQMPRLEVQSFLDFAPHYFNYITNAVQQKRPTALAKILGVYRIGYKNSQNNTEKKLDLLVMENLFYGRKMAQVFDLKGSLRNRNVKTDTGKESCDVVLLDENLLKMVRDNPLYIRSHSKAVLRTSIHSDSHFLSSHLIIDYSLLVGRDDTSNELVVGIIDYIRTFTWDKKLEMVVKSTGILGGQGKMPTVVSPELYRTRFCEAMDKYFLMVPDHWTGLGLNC
# assay.procedure: PIKfyve biochemical assay (ADP-Glo Kinase assay, Carna Biosciences)
# stated.conditions: GST-PIKFYVE, 10 μM to 3 nM in duplicate, read-out: hPIKfyve IC50
pIC50: −log10 of the molar value.

Look at this compound and give its reported pIC50. `CN1CCC(c2cnc3c(N4CCOCC4)nc(-n4ccc(-c5ccccc5)n4)nc3c2)CC1` 7.00 to 8.00

Ok, now `c1cncc(-c2ccn(-c3nc(N4CCOCC4)c4ncc(C5CCOCC5)cc4n3)n2)c1` 5.00 to 6.00

Ok, now `Cc1cc(-c2ccccc2)nn1-c1nc(N2CCOCC2)c2ncccc2n1` < 5.00

Ok, now `c1ccc(-c2nccc(-c3nc(N4CCOCC4)c4ncc(-c5cc[nH]n5)cc4n3)n2)cc1` 7.00 to 8.00

Ok, now `Oc1cccc(/C=N/Nc2nc(N3CCOCC3)c3ncccc3n2)c1` 6.00 to 7.00

Ok, now c1cnc2c(N3CCOCC3)nc(-n3ccc(CC4CCNC4)n3)nc2c1 (stereo not shown) 5.00 to 6.00

Ok, now `Cc1cnc(-c2ccccc2)nc1-c1nc(N2CCOCC2)c2ncccc2n1` 5.00 to 6.00

Ok, now `COc1ccc(-c2ccn(-c3nc(N4CCOCC4)c4ncc(C5=CCOCC5)cc4n3)n2)cc1` 6.00 to 7.00

Ok, now `COc1cccc(-c2ccn(-c3nc(N4CCOCC4)c4ncccc4n3)n2)c1` 7.00 to 8.00

Ok, now `COc1cccc(-c2nccc(-c3nc(N4CCOCC4)c4ncccc4n3)n2)c1` 6.00 to 7.00

Ok, now `CN1CCN(c2cnc3c(N4CCOCC4)nc(-n4cc(-c5ccccc5)cn4)nc3c2)C(=O)C1` 7.00 to 8.00

Ok, now `c1cnc2c(N3CCOCC3)nc(-c3ccnc(-c4ccoc4)n3)nc2c1` 5.00 to 6.00

Ok, now `c1ncc(-c2ccn(-c3nc(N4CCOCC4)c4ncc(C5CCOCC5)cc4n3)n2)cn1` < 5.00

Ok, now `Fc1cccc(Nc2nc(N3CCOCC3)c3ncc(Cc4cccnc4)cc3n2)c1` 6.00 to 7.00

Ok, now `COc1ccc(-c2ccn(-c3nc(N4CCOCC4)c4ncccc4n3)n2)cc1` 6.00 to 7.00

Ok, now `COc1cnc(-c2cccc(C)c2)nc1-c1nc(N2CCOCC2)c2ncccc2n1` 6.00 to 7.00

Ok, now `c1ccc(-c2ccn(-c3nc(N4CCOCC4)c4ncc(C5CCOCC5)cc4n3)n2)nc1` 6.00 to 7.00

Ok, now `CN1CCC(c2nccc(-c3nc(N4CCOCC4)c4ncccc4n3)n2)CC1` < 5.00

Ok, now `c1ccc(-c2cnn(-c3nc(N4CCOCC4)c4ncc(N5CCOCC5)cc4n3)c2)cc1` > 8.00

Ok, now `COc1cccc(-c2cnn(-c3nc(N4CCOCC4)c4ncccc4n3)c2)c1` > 8.00

Ok, now `c1cncc(-c2ccn(-c3nc(N4CCOCC4)c4ncc(-c5ccc6c(c5)OCCO6)cc4n3)n2)c1` 5.00 to 6.00

Ok, now CC1COCCN1c1nc(-n2ccc(-c3ccccc3)n2)nc2cccnc12 (stereo not shown) 6.00 to 7.00

Ok, now `COc1cncc(-c2cnc3c(N4CCOCC4)nc(-c4ccn(CC(F)(F)F)n4)nc3c2)c1` 5.00 to 6.00

Ok, now `c1cc(-c2ccn(-c3nc(N4CCOCC4)c4ncc(C5CCOCC5)cc4n3)n2)ccn1` 5.00 to 6.00

Ok, now `c1cnc2c(N3CCOCC3)nc(-c3ccnc(C4CCNCC4)n3)nc2c1` < 5.00

Ok, now `c1ccc(-c2ccn(-c3nc(N4CCOCC4)c4ncc(-c5ccncc5)cc4n3)n2)cc1` 7.00 to 8.00

Ok, now `c1ccc2c(c1)cnn2-c1nc(N2CCOCC2)c2ncccc2n1` 6.00 to 7.00

Ok, now `c1ccc(-c2ccn(-c3nc(N4CCOCC4)c4ncc(C5CC5)cc4n3)n2)cc1` 7.00 to 8.00

Ok, now CC1COCCN1c1nc(-c2ccnc(-c3ccccc3)n2)nc2cccnc12 (stereo not shown) 6.00 to 7.00

Ok, now `COc1ccc(-c2ccn(-c3nc(N4CCOCC4)c4ncc(C5CCOCC5)cc4n3)n2)cc1` 6.00 to 7.00

Ok, now `c1coc(-c2nccc(-c3nc(N4CCOCC4)c4ncccc4n3)n2)c1` 5.00 to 6.00

Ok, now `Cc1cccc(-c2ncc(O)c(-c3nc(N4CCOCC4)c4ncccc4n3)n2)c1` 7.00 to 8.00

Ok, now `Cc1cnc2c(N3CCOCC3)nc(-n3ccc(-c4ccccc4)n3)nc2c1` 7.00 to 8.00

Ok, now `c1ccc(-c2ccn(-c3nc(N4CCOCC4)c4nc(C5CCOCC5)ccc4n3)n2)cc1` 7.00 to 8.00
